Hey, just so you know, these numbers are from patent US11214803B2.

- Tested on: Yap1 mRNA
- assay summary: Antisense inhibition of human Yap1 in A-431 cells by cEt gapmers, single dose (Example 2, RTS4814)
- Format: cell-based
- experimental parameters: Table 5; A-431 cells, 5,000 cells per well, free uptake, 2,000 nM modified oligonucleotide, approx. 48 hours; RTS4814; normalized to RIBOGREEN; Yap1 mRNA relative to untreated control cells
Strand notation (5' to 3'): a small letter for the sugar, then the base; units joined by * are phosphorothioate-linked, units joined directly phosphodiester-linked; [ ] holds rarer units or linkages, { } end groups; capitals alone tell only the bases. k = constrained ethyl (cEt); [5mC] = 5-methylcytosine; d = 2'-deoxy (DNA)
Please respond with reported YAP1 (% UTC) for every item in the list.
Answers are plain numbers, in % UTC.

Some solved cases for reference:
So for 716464 (kT*kA*k[5mC]*dT*dT*d[5mC]*dA*dA*dA*d[5mC]*dA*dT*d[5mC]*kT*kG*k[5mC]; antisense) [Compound 716464] , the logged YAP1 (% UTC) turned out to be 62

So for 716569 (k[5mC]*kT*k[5mC]*d[5mC]*dT*dT*dA*dA*d[5mC]*d[5mC]*d[5mC]*dG*dG*kG*kT*kT; antisense) [Compound 716569] , the logged YAP1 (% UTC) turned out to be 115

So for 716560 (kT*kA*kA*d[5mC]*dA*dA*dT*dT*dT*dA*dT*dG*dT*kA*kA*kG; antisense) [Compound 716560] , the logged YAP1 (% UTC) turned out to be 107

So for 716500 (kA*kA*k[5mC]*dT*dT*d[5mC]*dT*dT*dA*d[5mC]*dT*dT*d[5mC]*k[5mC]*kA*kA; antisense) [Compound 716500] , the logged YAP1 (% UTC) turned out to be 18

So for 716404 (k[5mC]*kG*kT*d[5mC]*dA*dT*dT*dG*dT*dT*d[5mC]*dT*d[5mC]*kA*kA*kT; antisense) [Compound 716404] , the logged YAP1 (% UTC) turned out to be 63

Turning now to a further record.
So for 716446 (kG*k[5mC]*kA*d[5mC]*dA*d[5mC]*d[5mC]*d[5mC]*dA*d[5mC]*dA*dA*dA*kA*kT*kT; antisense) [Compound 716446] , the logged YAP1 (% UTC) turned out to be 83
